# protocol-summary: in vitro
# Format: cell-based
# condition-context: african green monkey; minimum concentration of test compound which caused cytotoxicity; Vero cells, 4 days at 37°; highest concentration tested 100; read-out: MTD
Counter-ions that a name gives are not always drawn.
// values below are reported MCC at 96 h

| molecule | MCC at 96 h |
| --- | --- |
| CCOC(=O)OC[C@H]1O[C@@H](n2cc(/C=C/Br)c(=O)[nH]c2=O)C[C@@H]1OC(=O)CCC(=O)[O-].[Na+] [Sodium Salt] | > 100 µg/mL |

Problem: Entry CCOC(=O)OC[C@H]1O[C@@H](n2cc(/C=C/Br)c(=O)[nH]c2=O)C[C@@H]1OP(=O)(O)O [Example 13, Monosodium Salt] has what MCC at 96 h?
Solution: > 100 µg/mL

Problem: # MCC at 96 h lookup, item CCOC(=O)n1c(=O)c(/C=C/Br)cn([C@H]2C[C@H](O)[C@@H](CO)O2)c1=O [Example 7]
Solution: > 100 µg/mL
